# Assay details: Highest frequency of moderate liver toxicity observed during clinical trials, expressed as a percentage. [column '% BIOL' in source]
# Run parameters: human
Assay readout: Hepatotoxicity (moderate) (%)

- CC[C@H](C)C[C@H](C)CCCCCCCCC(=O)N[C@H]1C[C@@H](O)[C@@H](NCCN)NC(=O)[C@@H]2[C@@H](O)CCN2C(=O)[C@H]([C@H](O)CCN)NC(=O)[C@H]([C@H](O)[C@@H](O)c2ccc(O)cc2)NC(=O)[C@@H]2C[C@@H](O)CN2C(=O)[C@H]([C@@H](C)O)NC1=O [CASPOFUNGIN]: 8.4
- CC(C)C[C@H](NC(=O)[C@@H](COC(C)(C)C)NC(=O)[C@H](Cc1ccc(O)cc1)NC(=O)[C@H](CO)NC(=O)[C@H](Cc1c[nH]c2ccccc12)NC(=O)[C@H](Cc1cnc[nH]1)NC(=O)[C@@H]1CCC(=O)N1)C(=O)N[C@@H](CCCNC(=N)N)C(=O)N1CCC[C@H]1C(=O)NNC(N)=O [GOSERELIN]: 7.8
- CN1C2CCCC1CC(NC(=O)c1nn(C)c3ccccc13)C2 (stereo not given) [GRANISETRON]: 7.9
- CCc1nc(N)nc(N)c1-c1ccc(Cl)cc1.Nc1ccc(S(=O)(=O)c2ccc(N)cc2)cc1: 25.3
- COc1nc(C)ccc1CN1CC1C#N (stereo not given) [CIAMEXON]: 14

* * *

# Assay details: Highest frequency of moderate liver toxicity observed during clinical trials, expressed as a percentage. [column '% BIOL' in source]
# Run parameters: human
Assay readout: Hepatotoxicity (moderate) (%)

* CCN(CC)CCCN(c1ccccc1)C1Cc2ccccc2C1 [APRINDINE] | 1
* O=C(NCN1CCOCC1)c1cnccn1 [MORINAMIDE] | 1.8
* C[C@]12CCC(=O)C=C1CC[C@@H]1[C@@H]2CC[C@@]2(C)[C@H]1CC[C@]2(C)O [METHYLTESTOSTERONE] | 32
* O=C1CN=C(c2ccccc2)c2c(sc3c2CCCC3)N1 [BENTAZEPAM] | 0
* Nc1ncc2ncn(COCCO)c2n1 [DESCICLOVIR] | 15.4

* * *

Consider the following molecules and their measured Hepatotoxicity (chronic liver disease) readings.
# Run parameters: human, serum, 4383 h
Assay readout: Hepatotoxicity (chronic liver disease)

• C#C[C@]1(O)CC[C@H]2[C@@H]3CCC4=CC(=O)CC[C@@H]4[C@H]3CC[C@@]21CC = 0
• CCCc1cc(=O)[nH]c(=S)[nH]1 = 4
• NS(=O)(=O)c1cc(C(=O)O)cc(N2CCCC2)c1Oc1ccccc1 [PIRETANIDE] = 0
• O=[N+]([O-])O[C@H]1CO[C@H]2[C@@H]1OC[C@H]2O[N+](=O)[O-] [ISOSORBIDE DINITRATE] = 0

* * *

# Run parameters: human, serum
Hepatotoxicity (acute) for assorted compounds
Assay readout: Hepatotoxicity (acute)

• CC(C)(O/N=C(\C(=O)N[C@@H]1C(=O)N2C(C(=O)[O-])=C(C[n+]3ccccc3)CS[C@H]12)c1csc(N)n1)C(=O)O [CEFTAZIDIME] = 2
• CCN1CCCC1CNC(=O)c1cc(S(N)(=O)=O)ccc1OC (centres undefined) [SULPIRIDE] = 3
• CC(C)=CCN1CC[C@]2(C)c3cc(O)ccc3C[C@H]1[C@H]2C [(+)-PENTAZOCINE] = 2
• Cc1nnc2n1-c1ccc(Cl)cc1C(c1ccccc1)=NC2 [ALPRAZOLAM] = 4
